Each recorded value in this set is attributed to ChEMBL document CHEMBL1932990.

- Tested on: Pichia kudriavzevii
- Protocol text: Antifungal activity against Candida krusei Berkout KCCM 11655 after 1 day by twofold broth dilution method
- Assay type: functional
- Assay setup: Berkout KCCM 11655, 24 h
Measured metric: MIC
I'd appreciate it if you included the unit after the number.

Examples with their reported MIC follow.
- CCOC(=O)c1c(N)oc2c1c(Sc1ccc(Br)cc1)c(O)c1ncncc12: 25 µg/mL
- COc1ccc(OC)c2ncncc12: 50 µg/mL
- O=C1C(Sc2ccc(O)cc2)=C(Sc2ccc(O)cc2)C(=O)c2ncncc21: 25 µg/mL

Prompt: Please give the measured MIC for this compound: `O=C1C(Sc2ccccc2F)=C(Sc2ccccc2F)C(=O)c2ncncc21`
Completion: 12.5 µg/mL

Prompt: Return reported MIC; argument: `CCOC(=O)c1c(N)oc2c1c(Sc1ccc(OC)cc1)c(O)c1ncncc12`
Completion: 50 µg/mL

Prompt: Consider the compound `O=C1C(Sc2ccc(Br)cc2)=C(Sc2ccc(Br)cc2)C(=O)c2ncncc21` and give its measured MIC.
Completion: 6.3 µg/mL
